FYI, the data here is from patent US20080312192A1.

TARGET: Flt-3 (Homo sapiens, UniProt P36888)
Sequence (P36888 563-993): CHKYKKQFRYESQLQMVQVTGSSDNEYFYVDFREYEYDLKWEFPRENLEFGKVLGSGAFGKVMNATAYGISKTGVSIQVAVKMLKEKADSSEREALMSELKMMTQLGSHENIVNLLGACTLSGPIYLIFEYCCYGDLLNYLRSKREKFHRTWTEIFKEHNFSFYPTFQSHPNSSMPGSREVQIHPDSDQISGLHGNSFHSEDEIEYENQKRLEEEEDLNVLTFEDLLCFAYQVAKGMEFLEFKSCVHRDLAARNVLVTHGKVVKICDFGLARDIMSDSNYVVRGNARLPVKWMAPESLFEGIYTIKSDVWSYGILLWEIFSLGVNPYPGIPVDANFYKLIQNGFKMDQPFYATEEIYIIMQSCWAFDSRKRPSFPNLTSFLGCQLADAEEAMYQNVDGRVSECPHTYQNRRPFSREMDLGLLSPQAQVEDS
OBSERVABLE: IC50 (nM)

Record excerpt, results attached:
{"columns": ["COMPOUND", "IC50 (nM)"],
 "data": [
  ["CNc1nccc(Oc2ccc(NC(=O)Nc3cc(N4CCN(C)CC4)cc(C(F)(F)F)c3)cc2)n1 [Example 53b]", 120],
  ["Nc1cc(Oc2ccc(NC(=O)Nc3ccc(CN4CCC4)c(C(F)(F)F)c3)cc2)ncn1 [Example 34b.3]", 370],
  ["Nc1cc(Oc2ccc(NC(=O)Nc3ccc(CN4CCOCC4)c(C(F)(F)F)c3)cc2)ncn1 [Example 34k.3]", 100],
  ["CNc1cc(Oc2ccc(NC(=O)Nc3ccc(CN4CCN(Cc5ccc(OC)cc5)CC4)c(C(F)(F)F)c3)cc2)ncn1 [Example 34p.1]", 590],
  ["CNc1cc(Oc2ccc(NC(=O)Nc3ccc(Cn4ccnc4C)c(C(F)(F)F)c3)cc2)ncn1 [Example 34e.1]", 160]
]}

A: CC(C)(C)N1CCN(Cc2ccc(NC(=O)Nc3ccc(Oc4cc(N)ncn4)cc3)cc2C(F)(F)F)CC1 [Example 34c.3]
B: CCN1CCN(Cc2ccc(NC(=O)Nc3ccc(Oc4ccnc(N)n4)cc3)cc2C(F)(F)F)CC1 [Example 52c]
Q. Which entry has a larger number for IC50, A or B ? Identify your pick by its label.
A. A

P: CN1CCN(Cc2ccc(NC(=O)Nc3ccc(Oc4ccnc(N)n4)cc3)cc2C(F)(F)F)CC1 [Example 52a]
Q: CCN(CC)Cc1ccc(NC(=O)Nc2ccc(Oc3cc(NC)ncn3)cc2)cc1C(F)(F)F [Example 34m.1]
Q. Would you mind telling me which has the lower recorded IC50 between P and Q ? Identify your pick by its label.
A. P

A: Cc1ncn(Cc2ccc(NC(=O)Nc3ccc(Oc4cc(Cl)ncn4)cc3)cc2C(F)(F)F)c1C
B: CNc1cc(Oc2ccc(NC(=O)Nc3ccc(CN4CCC4)c(C(F)(F)F)c3)cc2)ncn1 [Example 34b.1]
C: Cc1ncn(Cc2ccc(NC(=O)Nc3ccc(Oc4ccnc(N)n4)cc3)cc2C(F)(F)F)c1C [Example 51a.1]
Q. Falling order of IC50, please. Please respond by ranking the labels in the order requested.
A. A, B, C
(A: 1300 nM, B: 360 nM, C: 85 nM)

I: Nc1cc(Oc2ccc(NC(=O)Nc3ccc(-c4ccccn4)c(C(F)(F)F)c3)cc2)ncn1
II: CC(C)(C)CN1CCN(c2ccc(NC(=O)Nc3ccc(Oc4cc(N)ncn4)cc3)cc2C(F)(F)F)CC1 [Example 34u.2]
Q. Which entry has a larger number for IC50, I or II ? Identify your pick by its label.
A. II

---

TARGET: RET (Homo sapiens)
Sequence (P07949 658-1072 isoform P07949-2): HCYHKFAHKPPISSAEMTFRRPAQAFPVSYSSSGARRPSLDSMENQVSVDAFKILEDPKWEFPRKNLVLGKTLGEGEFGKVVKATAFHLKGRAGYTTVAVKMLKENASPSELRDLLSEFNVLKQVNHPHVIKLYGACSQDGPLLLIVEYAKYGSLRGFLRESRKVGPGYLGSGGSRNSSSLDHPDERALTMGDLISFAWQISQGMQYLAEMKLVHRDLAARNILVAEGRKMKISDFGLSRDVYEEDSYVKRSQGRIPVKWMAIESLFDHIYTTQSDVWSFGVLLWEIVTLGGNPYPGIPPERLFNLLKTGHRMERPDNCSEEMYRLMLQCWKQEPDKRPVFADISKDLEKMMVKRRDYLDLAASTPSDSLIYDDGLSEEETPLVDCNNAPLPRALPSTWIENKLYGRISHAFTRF
pIC50: −log10 of the molar value.
OBSERVABLE: pIC50

Record excerpt, results attached:
{"columns": ["COMPOUND", "pIC50"],
 "data": [
  ["CNc1cc(Oc2ccc(NC(=O)Nc3cc(CN4CCN(C)CC4)cc(C(F)(F)F)c3)cc2)ncn1", 6.23],
  ["CNc1nccc(Oc2ccc(NC(=O)Nc3cc(N4CCN(C)CC4)cc(C(F)(F)F)c3)cc2)n1 [Example 53b]", 6.35],
  ["CCN1CCN(Cc2ccc(NC(=O)Nc3ccc(Oc4ccnc(N)n4)cc3)cc2C(F)(F)F)CC1 [Example 52c]", 6.51],
  ["CNc1nccc(Oc2ccc(NC(=O)Nc3ccc(N4CCN(C)CC4)c(C(F)(F)F)c3)cc2)n1 [Example 53d]", 6.35]
]}

I: CC(C)N1CCN(Cc2ccc(NC(=O)Nc3ccc(Oc4ccnc(N)n4)cc3)cc2C(F)(F)F)CC1
II: CNc1cc(Oc2ccc(NC(=O)Nc3cc(CN(C)C)cc(C(F)(F)F)c3)cc2)ncn1
Q. Would you mind telling me which has the lower recorded pIC50 between I and II ? Identify your pick by its label.
A. I
(I: 6.40, II: 6.96)
